Reported pKi is given for each of the following compounds.
TARGET_DESC: human 5-HT2A receptor (Homo sapiens)
Sequence (P28223 whole entry): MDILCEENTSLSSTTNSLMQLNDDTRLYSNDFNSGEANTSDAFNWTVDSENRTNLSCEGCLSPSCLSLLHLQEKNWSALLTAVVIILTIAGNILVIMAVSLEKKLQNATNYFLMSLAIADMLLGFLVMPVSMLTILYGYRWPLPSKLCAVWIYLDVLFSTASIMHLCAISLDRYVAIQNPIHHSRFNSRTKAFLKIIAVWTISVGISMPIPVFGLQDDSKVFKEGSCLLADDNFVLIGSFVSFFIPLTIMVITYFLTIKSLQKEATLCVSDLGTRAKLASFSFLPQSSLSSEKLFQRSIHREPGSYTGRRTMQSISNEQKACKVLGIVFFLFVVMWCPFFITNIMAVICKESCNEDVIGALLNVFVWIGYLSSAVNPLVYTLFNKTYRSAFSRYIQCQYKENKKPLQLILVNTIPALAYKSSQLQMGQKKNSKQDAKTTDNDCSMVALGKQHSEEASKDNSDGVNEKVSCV
pKi: −log10 of the molar value.
QUANTITY_MEASURED: pKi

COMPOUND | OBSERVED_MEASUREMENT
CO[C@H]1CC[C@H](CC(=O)N[C@H]2CC[C@H](CCN3CCN(c4nccc5c4OCC5)CC3)CC2)CC1 [Example 92] | 7.27
COC(CC(=O)N[C@H]1CC[C@H](CCN2CCN(c3nccc4c3OCC4)CC2)CC1)OC [Example 62] | 7.42
O=C(N[C@H]1CC[C@H](CCN2CCN(c3nccc4c3OCC4)CC2)CC1)c1ccc(N2CCOCC2)cc1 [Example 38] | 7.78
O=C(N[C@H]1CC[C@H](CCN2CCN(c3nccc4c3OCC4)CC2)CC1)c1ccccc1 [Example 22] | 7.83
CS(=O)(=O)c1ccc(C(=O)N[C@H]2CC[C@H](CCN3CCN(c4nccc5c4OCC5)CC3)CC2)s1 [Example 81] | 7.72
O=C(N[C@H]1CC[C@H](CCN2CCN(c3nccc4ccoc34)CC2)CC1)C1CCOCC1 [Example 11] | 8.14
N#CCC(=O)N[C@H]1CC[C@H](CCN2CCN(c3nccc4c3OCC4)CC2)CC1 [Example 31] | 7.53
O=C(N[C@H]1CC[C@H](CCN2CCN(c3nccc4c3OCC4)CC2)CC1)c1ccc(Cl)cc1 [Example 54] | 7.18
CC[C@@H](O)CC(=O)N[C@H]1CC[C@H](CCN2CCN(c3nccc4c3OCC4)CC2)CC1 [Example 103] | 6.95
CC#CC(=O)N[C@H]1CC[C@H](CCN2CCN(c3nccc4c3OCC4)CC2)CC1 [Example 86] | 7.41
CCC(=O)N[C@H]1CC[C@H](CCN2CCN(c3nccc4ccsc34)CC2)CC1 [Example 2] | 8.04
O=C(CCO)N[C@H]1CC[C@H](CCN2CCN(c3nccc4c3OCC4)CC2)CC1 [Example 49] | 7.08
O=C(Cc1noc2ccccc12)N[C@H]1CC[C@H](CCN2CCN(c3nccc4c3OCC4)CC2)CC1 [Example 75] | 7.34

* * *

Let's look at some molecules and their measured melting point.

MOLECULE | melting point, °C
O=C(C[C@@H](O)C(F)(F)F)N[C@H]1CC[C@H](CCN2CCN(c3nccc4c3OCC4)CC2)CC1 [Example 47] | 214.5
CCC(=O)N[C@H]1CC[C@H](CCN2CCN(c3nccc4c3OCC4)CC2)CC1 [Example 18] | 196
CCCCC(=O)N[C@H]1CC[C@H](CCN2CCN(c3nccc4c3OCC4)CC2)CC1 [Example 51] | 168
O=C(N[C@H]1CC[C@H](CCN2CCN(c3nccc4c3OCC4)CC2)CC1)C1CCCO1 (mixture of isomers) [Example 82] | 145
CC(C)(C)C(=O)N[C@H]1CC[C@H](CCN2CCN(c3nccc4c3OCC4)CC2)CC1 [Example 90] | 194.5
CCS(=O)(=O)N[C@H]1CC[C@H](CCN2CCN(c3nccc4c3OCC4)CC2)CC1 [Example 27] | 190
CCCC(=O)N[C@H]1CC[C@H](CCN2CCN(c3nccc4c3OCC4)CC2)CC1 [Example 45] | 183

* * *

Each entry below carries its recorded melting point.

COMPOUND | melting point [°C]
CCC(=O)N[C@H]1CC[C@H](CCN2CCN(c3nccc4ccoc34)CC2)CC1 [Example 14] | 187.5
O=S(=O)(N[C@H]1CC[C@H](CCN2CCN(c3nccc4c3OCC4)CC2)CC1)c1ccccc1 [Example 99] | 122.5
Cc1ccc(C(=O)N[C@H]2CC[C@H](CCN3CCN(c4nccc5c4OCC5)CC3)CC2)cn1 [Example 69] | 204
O=C(N[C@H]1CC[C@H](CCN2CCN(c3nccc4c3OCC4)CC2)CC1)c1ccc(Cl)cc1Cl [Example 67] | 243.5
CC(C)(C)c1ccc(C(=O)N[C@H]2CC[C@H](CCN3CCN(c4nccc5c4OCC5)CC3)CC2)cc1 [Example 56] | 183
O=C(N[C@H]1CC[C@H](CCN2CCN(c3nccc4c3OCC4)CC2)CC1)c1ccc(N2CCOCC2)nc1 [Example 73] | 231

* * *

TARGET_DESC: human D2 receptor (Homo sapiens, UniProt P14416)
Construct: expressed in transfected cells; host or cells: HEK293 EBNA cells, transient transfection; membrane preparation
Sequence (P14416 whole entry): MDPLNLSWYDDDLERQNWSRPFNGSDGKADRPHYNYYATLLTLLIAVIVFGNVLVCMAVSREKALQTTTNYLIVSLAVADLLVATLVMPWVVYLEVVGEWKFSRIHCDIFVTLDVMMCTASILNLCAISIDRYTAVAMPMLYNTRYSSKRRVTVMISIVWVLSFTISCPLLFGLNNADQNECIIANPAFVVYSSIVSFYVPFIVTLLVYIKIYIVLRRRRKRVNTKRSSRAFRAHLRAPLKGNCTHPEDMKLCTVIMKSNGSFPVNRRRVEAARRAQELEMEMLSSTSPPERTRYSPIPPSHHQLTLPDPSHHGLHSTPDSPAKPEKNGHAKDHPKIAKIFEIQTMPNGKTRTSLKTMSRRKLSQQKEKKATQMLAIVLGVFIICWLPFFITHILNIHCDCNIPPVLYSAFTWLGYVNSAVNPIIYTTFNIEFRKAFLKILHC
PROCEDURE_SUMMARY: Radioligand binding to cloned human D2 receptor expressed in HEK-293 EBNA cells ([3H]-spiperone)
RUN_PARAMETERS: HEK293 EBNA cell membranes, approximately 0.7 nM [3H]-spiperone, 1 h at RT
Please assign not satisfied whenever Ki is at or above 700 nM, and satisfied whenever it is below.

COMPOUND | TARGET_DESC | CLASS_ASSIGNMENT
CC(C)C(=O)N[C@H]1CC[C@H](CCN2CCN(c3nccc4c3OCC4)CC2)CC1 | human D2 receptor (Homo sapiens, UniProt P14416) | satisfied
O=C(N[C@H]1CC[C@H](CCN2CCN(c3nccc4c3OCC4)CC2)CC1)C1CCOC1 (some centres unmarked) | human D2 receptor (Homo sapiens, UniProt P14416) | satisfied
O=C(CC1CC1)N[C@H]1CC[C@H](CCN2CCN(c3nccc4c3OCC4)CC2)CC1 | human D2 receptor (Homo sapiens, UniProt P14416) | satisfied
O=C(N[C@H]1CC[C@H](CCN2CCN(c3nccc4c3OCC4)CC2)CC1)c1ccc(-c2ccccc2)cc1 | human D2 receptor (Homo sapiens, UniProt P14416) | satisfied
O=C(N[C@H]1CC[C@H](CCN2CCN(c3nccc4c3OCC4)CC2)CC1)C(F)(F)F | human D2 receptor (Homo sapiens, UniProt P14416) | satisfied
CC(=O)N[C@H]1CC[C@H](CCN2CCN(c3nccc4c3OCC4)CC2)CC1 | human D2 receptor (Homo sapiens, UniProt P14416) | satisfied
O=S(=O)(N[C@H]1CC[C@H](CCN2CCN(c3nccc4c3OCC4)CC2)CC1)c1ccc(F)cc1 | human D2 receptor (Homo sapiens, UniProt P14416) | satisfied
C/C=C/CC(=O)N[C@H]1CC[C@H](CCN2CCN(c3nccc4c3OCC4)CC2)CC1 | human D2 receptor (Homo sapiens, UniProt P14416) | not satisfied
CC(C)(O)C(=O)N[C@H]1CC[C@H](CCN2CCN(c3nccc4c3OCC4)CC2)CC1 | human D2 receptor (Homo sapiens, UniProt P14416) | not satisfied
CS(=O)(=O)CC(=O)N[C@H]1CC[C@H](CCN2CCN(c3nccc4ccoc34)CC2)CC1 | human D2 receptor (Homo sapiens, UniProt P14416) | satisfied
O=C(CCC(F)(F)F)N[C@H]1CC[C@H](CCN2CCN(c3nccc4c3OCC4)CC2)CC1 | human D2 receptor (Homo sapiens, UniProt P14416) | not satisfied
CCCC(=O)N[C@H]1CC[C@H](CCN2CCN(c3nccc4c3OCC4)CC2)CC1 | human D2 receptor (Homo sapiens, UniProt P14416) | not satisfied
O=C(CCO)N[C@H]1CC[C@H](CCN2CCN(c3nccc4c3OCC4)CC2)CC1 | human D2 receptor (Homo sapiens, UniProt P14416) | not satisfied
CO[C@H]1CC[C@H](CC(=O)N[C@H]2CC[C@H](CCN3CCN(c4nccc5ccsc45)CC3)CC2)CC1 | human D2 receptor (Homo sapiens, UniProt P14416) | not satisfied
O=C(N[C@H]1CC[C@H](CCN2CCN(c3nccc4c3OCC4)CC2)CC1)c1ccc(-n2cccn2)cc1 | human D2 receptor (Homo sapiens, UniProt P14416) | satisfied
O=C(C[C@H]1COCCO1)N[C@H]1CC[C@H](CCN2CCN(c3nccc4c3OCC4)CC2)CC1 | human D2 receptor (Homo sapiens, UniProt P14416) | not satisfied

* * *

# key: entry, value: pKi
TARGET_DESC: human 5-HT2A receptor (Homo sapiens)
pKi: −log10 of the molar value.

COMPOUND | TARGET_DESC | pKi
CCC(=O)N[C@H]1CC[C@H](CCN2CCN(c3nccc4ccoc34)CC2)CC1 | human 5-HT2A receptor (Homo sapiens) | 8.02
O=C(N[C@H]1CC[C@H](CCN2CCN(c3nccc4c3OCC4)CC2)CC1)c1ccc(N2CCS(=O)(=O)CC2)cc1 | human 5-HT2A receptor (Homo sapiens) | 7.64
CO[C@H]1CC[C@H](CC(=O)N[C@H]2CC[C@H](CCN3CCN(c4nccc5c4OCC5)CC3)CC2)C1 | human 5-HT2A receptor (Homo sapiens) | 7.36
O=C(CC1COCCO1)N[C@H]1CC[C@H](CCN2CCN(c3nccc4c3OCC4)CC2)CC1 (stereo partly drawn) | human 5-HT2A receptor (Homo sapiens) | 7.53
Cc1cc(C(=O)N[C@H]2CC[C@H](CCN3CCN(c4nccc5c4OCC5)CC3)CC2)on1 | human 5-HT2A receptor (Homo sapiens) | 7.31
COC(C)CC(=O)N[C@H]1CC[C@H](CCN2CCN(c3nccc4c3OCC4)CC2)CC1 (mixture of isomers) | human 5-HT2A receptor (Homo sapiens) | 7.26
